# experiment_notes: Light fastness of dye images, 17,000 lux fluorescent lamp, 7 days
# Assay type: physicochemical
# measurement_context: Table 1; 17,000 lux, 7 days; initial density 1.0, at λmax; polyvinyl butyral
reported_endpoint: Light fastness (% remaining) (%)
Numbers only, in %.

I have 3 compounds here; please give me Light fastness (% remaining) for each one.
1. CCOC(=O)c1cn2c(nc1=O)C(C#N)=C(C#N)C2=Nc1ccc(N(CC)CC)cc1NC(=O)N(C)C
2. CCN(CC)c1ccc(N=C2C(c3ccccc3)=C(C#N)c3nc(=O)c4ccccc4n32)c(NC(C)=O)c1
3. CCOC(=O)c1cn2c(nc1=O)C(C#N)=C(c1ccccc1)C2=Nc1ccc(N(CC)CC)cc1

Output:
1: 93; 2: 91; 3: 91

###

# experiment_notes: Heat fastness of dye images, 60° C. dry, 7 days, status A reflection density (Example 5)
# Assay type: physicochemical
# measurement_context: Table 4, status A reflection density 1.0
reported_endpoint: Heat fastness (% remaining) (%)
Answers are plain numbers, in %.

I have 6 molecules here; please give me Heat fastness (% remaining) for each one.
1. CCN(CC)c1ccc(N=C2N=C(c3ccccc3Cl)C(C(C)(C)C)=C2C#N)c(NC(=O)C(C)(C)C)c1 [Dye 118]
2. CCN(CCOc1ccc(OC)cc1)c1ccc(N=C2N=C(c3ccccc3)C(C#N)=C2NC(=O)C(C)(C)C)cc1 [Dye 115]
3. CCN(CC)c1ccc(N=C2N=C(c3ccccc3NC(=O)C(C)(C)C)C(C#N)=C2c2ccccc2)cc1 [Dye 116]
4. CCN(CC)c1ccc(N=C2N=C(NC(=O)C(C)(C)C)C(C#N)=C2C#N)cc1 [Dye 113]
5. CCN(CCC#N)c1ccc(N=C2N=C(NC(=O)C(C)(C)C)C(C#N)=C2C#N)cc1 [Dye 119]
6. CCN(CC)c1ccc(N=C2N=C(c3ccccc3)C(C#N)=C2c2ccccc2)c(C)c1 [Dye 114]

Output:
[91, 90, 89, 90, 90, 91]
